measured target: purified native human BChE (Homo sapiens, UniProt P06276)
Construct: purified native human BChE; tissue gift of Dr Florian Nachon (IRBA, Brétigny-sur-Orge, France)
Sequence (P06276 29-602): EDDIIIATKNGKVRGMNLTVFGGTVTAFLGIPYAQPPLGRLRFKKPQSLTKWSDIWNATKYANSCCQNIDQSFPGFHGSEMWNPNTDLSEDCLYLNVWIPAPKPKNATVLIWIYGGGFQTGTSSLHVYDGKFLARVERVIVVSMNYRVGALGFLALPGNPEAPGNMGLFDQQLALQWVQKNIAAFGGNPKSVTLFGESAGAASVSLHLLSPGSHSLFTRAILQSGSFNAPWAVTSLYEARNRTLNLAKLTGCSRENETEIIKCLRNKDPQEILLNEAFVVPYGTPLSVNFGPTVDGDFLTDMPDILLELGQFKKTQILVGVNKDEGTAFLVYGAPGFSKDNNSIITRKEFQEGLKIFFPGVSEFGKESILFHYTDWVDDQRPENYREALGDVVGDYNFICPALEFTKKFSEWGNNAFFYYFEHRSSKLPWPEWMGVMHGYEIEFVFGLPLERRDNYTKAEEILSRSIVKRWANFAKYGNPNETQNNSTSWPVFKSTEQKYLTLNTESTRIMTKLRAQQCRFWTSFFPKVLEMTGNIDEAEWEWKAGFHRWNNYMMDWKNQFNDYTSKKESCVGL
test method notes: biochemical
Format: biochemical
endpoint name: pKi
// pKi here means minus log10 of the molar concentration (mol/L)

Q: May I ask what pKi has been recorded for CC(C)(C)C1=CC(=O)C=CC1=O [Compound 1, tert-butyl-1,4-benzoquinone] ?
Result: 4.26

---

test method notes: ORAC assay (peroxyl radical antioxidant activity)
setup conditions: benzoquinone 50 µM
// label = yes if ORAC value, TE (Trolox equivalents) is not less than 20 µM, otherwise no

Examples with answers:
{"smiles string": "CC(C)(C)C1=CC(=O)C=C(Sc2ccc3ccccc3c2)C1=O", "category label": "no"}
{"smiles string": "CC(C)(C)C1=CC(=O)C=C(SCCc2ccccc2)C1=O", "category label": "no"}
{"smiles string": "COc1ccc(SC2=CC(=O)C=C(C(C)(C)C)C2=O)cc1", "category label": "no"}
{"smiles string": "CC(C)(C)C1=CC(=O)C=CC1=O", "category label": "no"}
{"smiles string": "CC(C)(C)C1=CC(=O)C(SCCO)=CC1=O", "category label": "yes"}

Q: Textbook exercise: given the entry `CC(C)(C)C1=CC(=O)C=C(Sc2ccc(O)cc2)C1=O` , state whether its ORAC value, TE (Trolox equivalents) is greater than or equal to 20 µM.
Result: yes

Q: Identify whether the reported ORAC value, TE (Trolox equivalents) of the following compound is 20 µM or greater: `CC(C)(C)C1=CC(=O)C(SC2CCCC2)=CC1=O`
Result: no
